ASSAY SUMMARY: Pharmacokinetic study (PK) after single i.v. and i.p. administration
Assay type: in vivo, male CD-1 mice
MEASUREMENT SETUP: male, CD-1, mouse, in vivo, iv, 2 mg/kg
Description: 2.9. Pharmacokinetic Study (PK) 30 grams (±20%) male CD-1 mice obtained from Charles River Laboratories Deutschland GmbH were used in the study. The vehicle, physiological saline, was added to give a final concentration of 1 mg/ml of the compounds. […] PK analysis was performed on pooled data (generally n=2 or 3) using the software PK solutions 2.0™ (Summit Research Service, Montrose, Colo. 81401 USA). The area under the curve AUC was calculated by the linear trapezoidal rule. […]
ASSAY METRIC: AUC(0-t) (ng·h/mL)

N=C(N)NCCC[C@@H]1NC(=O)[C@@H]2CSSC[C@H](NC(=O)[C@H](Cc3ccc4ccccc4c3)NC(=O)[C@H](CCCNC(=N)N)NC(=O)[C@H](CCCNC(=N)N)NC(=O)[C@H]3CCCN3C(=O)CNC1=O)C(=O)N[C@@H](Cc1ccc(O)cc1)C(=O)N[C@@H](CCCNC(N)=O)C(=O)N[C@@H](CCCCN)C(=O)N1CCC[C@@H]1C(=O)N1CCC[C@H]1C(=O)N[C@@H](Cc1ccc(O)cc1)C(=O)N[C@@H](CCCNC(=N)N)C(=O)N[C@@H](CCCNC(N)=O)C(=O)N2 [Ex. 51] : 1700

----------
compounds and their reported IC50
ASSAY TARGET: CXCR4 (Homo sapiens, UniProt P61073)
Sequence (P61073 whole entry): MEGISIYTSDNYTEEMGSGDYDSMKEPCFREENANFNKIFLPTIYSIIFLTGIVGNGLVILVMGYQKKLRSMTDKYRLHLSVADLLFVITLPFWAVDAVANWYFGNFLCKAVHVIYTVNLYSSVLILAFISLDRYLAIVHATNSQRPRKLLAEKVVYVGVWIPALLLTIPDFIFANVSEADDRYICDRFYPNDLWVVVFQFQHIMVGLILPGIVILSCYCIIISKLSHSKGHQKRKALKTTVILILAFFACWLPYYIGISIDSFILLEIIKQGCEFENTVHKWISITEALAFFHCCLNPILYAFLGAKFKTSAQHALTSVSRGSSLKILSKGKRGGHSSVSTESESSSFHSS
ASSAY SUMMARY: Ca2+-assay method 2 (Flexstation, SDF-1 induced calcium mobilization)
Assay type: cell-based
Design: expressed in transfected cells; host or cells: mouse pre-B cell line 300-19
MEASUREMENT SETUP: method 2 (Ex. 54-160), mouse pre-B cell line 300-19 with human CXCR4, 10 nM SDF-1; read-out: IC50 (nM) Ca^2+ assay
Bridge positions count the residues as written; N and C are the ends. Square brackets hold non-standard residues; d marks the D form. Peptide text beside a SMILES is read from it. 2Nal = N[C@@H](Cc1ccc2ccccc2c1)C(=O)O; Cit = NC(=O)NCCC[C@H](N)C(=O)O
ASSAY METRIC: IC50 (nM)

CC[C@H](C)[C@@H]1NC(=O)[C@@H]2CCCN2C(=O)[C@H]2CCCN2C(=O)[C@H](CCCCN)NC(=O)[C@H](CCC(N)=O)NC(=O)[C@H](Cc2ccc(O)cc2)NC(=O)[C@@H]2CSSC[C@H](NC(=O)[C@H](CCCNC(N)=O)NC(=O)[C@H](CCCNC(=N)N)NC1=O)C(=O)N[C@@H](CCCNC(=N)N)C(=O)NCC(=O)N1CCC[C@@H]1C(=O)N[C@@H](CCCNC(=N)N)C(=O)N[C@@H](CCCNC(=N)N)C(=O)N[C@@H](Cc1ccc3ccccc3c1)C(=O)N2 [Ex. 65] (cyclo(IR[Cit]CRG[dP]RR[2Nal]CYQK[dP]P); disulfide 4-11) : 3.9
N=C(N)NCCC[C@@H]1NC(=O)[C@@H]2CSSC[C@H](NC(=O)[C@H](Cc3ccc4ccccc4c3)NC(=O)[C@H](CCCNC(=N)N)NC(=O)[C@H](CCCNC(=N)N)NC(=O)[C@H]3CCCN3C(=O)CNC1=O)C(=O)N[C@@H](Cc1ccc(O)cc1)C(=O)N[C@@H](CCC(N)=O)C(=O)N[C@@H](CCCCN)C(=O)N1CCC[C@@H]1C(=O)N1CCC[C@H]1C(=O)N[C@@H](CCC(=O)O)C(=O)N[C@@H](CCCNC(=N)N)C(=O)N[C@@H](CCCNC(N)=O)C(=O)N2 [Ex. 68] (cyclo(ER[Cit]CRG[dP]RR[2Nal]CYQK[dP]P); disulfide 4-11) : 1.1
